- TEST: Ocular pharmacokinetics of Comp-02 after intravitreal injection in rabbit
- Format: in vivo, pigmented HY79b rabbits
- SETTINGS: male, pigmented HY79b, other: intravitreal, 50 µg/eye, plasma, intravitreal
READOUT KIND: Tmax (h)
Field format: number, assumed h, no unit text.

Input: // query Tmax value for entry CNC(=O)C(=O)NCCCC/C=C\CCCCCCCOCC(=O)O [Comp-02]
Output: 2
